System: MALME-3M melanoma
Assay: NCI-60 one-dose screen, 48 h
Conditions: 10 µM unless noted
The panel holds about 83,000 compounds, 20% with a hit somewhere; the sample as a whole holds those more often. Activity calls are given as the source filed them. How the source made its calls: active means growth percent below 10; inactive means the rest.
Respond with a class label; see yes (1) (active), no (0) (inactive)

Qu. Returns: the outcome recorded for CCC(c1ccc(OC)cc1)C(CC)c1ccc(O)c(CN2CCCCC2)c1 (stereo not drawn) in this assay.
Ans. no (0)

Qu. Returns: the outcome recorded for CCCCC[C@H]1CC=C2C(=O)C=C[C@@H]2CC=CCCCC(=O)O[C@@H](CCCCC)CC=C2C(=O)C=C[C@@H]2CC=CCCCC(=O)O[C@@H](CCCCC)CC=C2C(=O)C=C[C@@H]2CC=CCCCC(=O)O1 in this assay.
Ans. yes (1)

Qu. Returns: the outcome recorded for O=C1c2cccc3cccc(c23)C(=O)N1CC#Cc1ccc2c3c(cccc13)C(=O)N(CCO)C2=O in this assay.
Ans. no (0)

====

Field: growth. Provide a value for each of the compounds that follow.
Tested on: SN12C renal
Experiment: NCI-60 one-dose screen, 48 h (100 = growth as untreated, 0 = no growth, -100 = all killed)
Settings: 10 µM unless noted
This is part of a sample that, as a whole, favours compounds with a hit. Of some 83,000 tested, about 20% had one in any assay.
Expressed in %, but write only the number.

Qu. Fill in the blank: the reported growth of Cn1cc(-c2csc(-c3cn(CCNC(=O)OC(C)(C)C)c4ccccc34)n2)c2cccnc21 is ____.
Ans. 87.8

Qu. Fill in the blank: the reported growth of CN1CCN(CC#CCn2c3c(c4ccccc42)C[C@]2(C)[C@H]4CC[C@@H]5[C@H]6[C@H]7OC(=O)[C@@]6(CCC7(C)C)CC[C@@]5(C)[C@]4(C)CC[C@H]2C3(C)C)CC1 is ____.
Ans. 52.8

Qu. Fill in the blank: the reported growth of CCc1nnc(NC(=O)c2ccoc2COc2ccccc2)s1 is ____.
Ans. 55.7

====

System: NCI-H322M lung
Experiment: NCI-60 one-dose screen, 48 h
Conditions: 10 µM unless noted
About 83,000 compounds went through this panel and 20% of them were active in at least one assay; those are over-represented in the sample as a whole. Active and inactive are the calls of the source. How the source made its calls: active means growth percent below 10; inactive means the rest.
Respond with a class label; see 1 for active, -1 for inactive

Qu. Returns: the outcome recorded for Nc1c(C(=O)Nc2cccc(Br)c2)sc2nc3c(cc12)C(=O)CCC3 in this assay.
Ans. -1

Qu. Returns: the outcome recorded for C[C@H]1[C@@H]2[C@H]3CC[C@@H]4[C@@]5(C)Cc6c([nH]c7ccccc67)C(C)(C)[C@@H]5CC[C@@]4(C)[C@]3(C)CC[C@]23CO[C@]1(C)[C@@H](C(=O)/C=C/c1ccccn1)C3 in this assay.
Ans. -1

Qu. Returns: the outcome recorded for COc1ccc(-c2nc3ncccn3c2-c2nc3ccc(Br)cc3[nH]2)cc1 in this assay.
Ans. -1

Qu. Returns: the outcome recorded for Cc1cc(Cl)c2c(N(C)C)cccc2n1 in this assay.
Ans. -1

Qu. Returns: the outcome recorded for COc1cc(/C=C2\C(=O)N(CC(O)COc3cc(O)c4c(=O)cc(-c5ccccc5)oc4c3)c3ccccc32)cc(OC)c1O (stereo unspecified) in this assay.
Ans. -1

Qu. Returns: the outcome recorded for N#C/C(=C\c1ccc(-c2ccc(Br)cc2)o1)c1nc(-c2cccs2)cs1 in this assay.
Ans. -1

Qu. Returns: the outcome recorded for Brc1ccc2c(c1)c(-c1nc(-c3c[nH]c4ncccc34)cs1)cn2CCCN1CCCCC1 in this assay.
Ans. -1

Qu. Returns: the outcome recorded for COc1ccc(/C=C/C(=O)NCC(C)O)cc1 (stereo unspecified) in this assay.
Ans. -1

Qu. Returns: the outcome recorded for COC(=O)[C@]12CC[C@@H](C)[C@H](C)[C@@H]1C1=CC[C@@H]3[C@@]4(C)C[C@@H](OC(C)=O)[C@H](OC(C)=O)[C@@](C)(COC(C)=O)[C@@H]4[C@H](O)C[C@@]3(C)[C@]1(C)CC2 in this assay.
Ans. -1

Qu. Returns: the outcome recorded for N=c1c(S(=O)(=O)c2ccccc2)cc2c(=O)n3ccccc3nc2n1C1CCCC1 in this assay.
Ans. -1

Qu. Returns: the outcome recorded for O=S(=O)(NCCCNc1cc(-c2cn(-c3ccccc3)nc2-c2cccc(O)c2)ccn1)c1ccc(F)cc1 in this assay.
Ans. -1

Qu. Returns: the outcome recorded for O=S(=O)(NCCNc1cc(-c2cn(-c3ccccc3)nc2-c2cccc(O)c2)ccn1)c1ccc(C(F)(F)F)cc1 in this assay.
Ans. -1

Qu. Returns: the outcome recorded for C=C(C)[C@@H]1CC[C@]2(C=NCCCNCCCCNCCCN)CC[C@]3(C)[C@H](CC[C@@H]4[C@@]5(C)CCCNC(C)(C)[C@@H]5CC[C@]43C)[C@@H]12 in this assay.
Ans. -1

Qu. Returns: the outcome recorded for O=C1/C(=C\c2ccco2)SC(=S)N1CCc1ccc(O)cc1 in this assay.
Ans. -1

Qu. Returns: the outcome recorded for C[C@@H](C(=O)O)c1ccc2c3cc(Cl)ccc3n(Cc3cc(=O)oc4ccc(Cl)cc34)c2c1 in this assay.
Ans. -1

Qu. Returns: the outcome recorded for CCCCC[C@H]1CC=C2C(=O)C(Cl)=C[C@@H]2CC=CCCCC(=O)O[C@@H](CCCCC)CC=C2C(=O)C(Cl)=C[C@@H]2CC=CCCCC(=O)O[C@@H](CCCCC)CC=C2C(=O)C(Cl)=C[C@@H]2CC=CCCCC(=O)O1 in this assay.
Ans. -1

Qu. Returns: the outcome recorded for COc1ccc(C2C(C#N)=C(N)Oc3c2sc2c(F)cccc32)cc1 (stereo unspecified) in this assay.
Ans. -1

Qu. Returns: the outcome recorded for COc1cccc(-c2nn(-c3ccccc3)cc2-c2ccnc(NCCNS(=O)(=O)c3cccc(F)c3)c2)c1 in this assay.
Ans. -1

Qu. Returns: the outcome recorded for Cc1cc(Nc2ccc(F)cc2)nc(N2CCN(c3ccnc4cc(Cl)ccc34)CC2)n1 in this assay.
Ans. -1

Qu. Returns: the outcome recorded for O=C1/C(=C\c2ccc(Br)o2)SC(=S)N1CCc1ccc(O)cc1 in this assay.
Ans. -1

Qu. Returns: the outcome recorded for CC(C)=CCC/C(C)=C/CC/C(C)=C/CC/C(C)=C/CSC[C@H](NC(=O)CCCCCN1CCN(C)CC1)C(=O)NC1CCCCC1 in this assay.
Ans. -1

Qu. Returns: the outcome recorded for COC(=O)CNc1nc(N(C)O)nc(N(C)O)n1 in this assay.
Ans. -1

Qu. Returns: the outcome recorded for Cc1cc2nc3c4cc(O)ccc4n(CCN(C)C)c3nc2cc1C in this assay.
Ans. 1

Qu. Returns: the outcome recorded for Oc1cc(/C=C/c2nc(N3CCOCC3)c3cc(Cl)c(Cl)cc3n2)cc(O)c1O in this assay.
Ans. -1

Qu. Returns: the outcome recorded for O=C1c2cc3c(cc2-c2c1c1ccc(F)cc1c(=O)n2CCCN1CCOCC1)OCO3 in this assay.
Ans. -1

Qu. Returns: the outcome recorded for C=C1C(=O)O[C@H]2[C@H]1CC/C(COC(=O)N[C@H](Cc1c[nH]c3ccccc13)C(=O)OC)=C\CC[C@@]1(C)O[C@@H]21 in this assay.
Ans. -1

Qu. Returns: the outcome recorded for CCN1CCN(c2nc(C)cc(N(CCCNc3ccnc4cc(Cl)ccc34)Cc3ccco3)n2)CC1 in this assay.
Ans. -1

Qu. Returns: the outcome recorded for CCOC(=O)c1ccc2c(c1)[n+](=O)c(C(=O)C1CCCS1)c(C(F)(F)F)n2[O-] (stereo unspecified) in this assay.
Ans. 1

Qu. Returns: the outcome recorded for CCN1CCN(C(=O)[C@]23CCC(C)(C)C[C@@H]2C2=CC[C@@H]4[C@@]5(C)C/C(=C/c6ccncc6)C(=O)C(C)(C)[C@@H]5CC[C@@]4(C)[C@]2(C)CC3)CC1 in this assay.
Ans. -1

Qu. Returns: the outcome recorded for OCC12CCCC(CO)(COC1)C2O (stereo unspecified) in this assay.
Ans. -1

Qu. Returns: the outcome recorded for COc1cc2c3c(c4c5ccccc5[nH]c4c2c(OC)c1OC)C(=O)N(O)C3=O in this assay.
Ans. -1

====

System: OVCAR-4 ovarian
Assay: NCI-60 one-dose screen, 48 h (100 = growth as untreated, 0 = no growth, -100 = all killed)
Conditions: 10 µM unless noted
Compounds without any hit were thinned out: in the full panel of roughly 83,000, 20% have a hit. Active and inactive are the calls of the source. The calls were made as follows: active = growth percent below 10; inactive = the rest.
measured.quantity: growth

Qu. Form field - read-out: growth; system: OVCAR-4 ovarian; submitted item: COc1ccc(-c2cc(-c3cccs3)n(N=O)c(=O)c2C#N)cc1
Ans. 100% (inactive)

Qu. Form field - read-out: growth; system: OVCAR-4 ovarian; submitted item: Cc1nnc2nc(N)[nH]n2c1=O
Ans. 99.4% (inactive)

Qu. Form field - read-out: growth; system: OVCAR-4 ovarian; submitted item: CCCCC[C@H]1C/C=C2/C(=O)C(Cl)=C[C@@H]2C/C=C\CCCC(=O)O1
Ans. 16.3% (inactive)

Qu. Form field - read-out: growth; system: OVCAR-4 ovarian; submitted item: COC(=O)CCCCCn1c2ccccc2c2c3c(c4c5ccccc5[nH]c4c21)C(=O)N(O)C3=O
Ans. 57.5% (inactive)

Qu. Form field - read-out: growth; system: OVCAR-4 ovarian; submitted item: CC(c1ccccc1)N1C(=O)C(C2SC(=S)N(C(C)c3ccccc3)C2=O)SC1=S (configuration not stated)
Ans. 97.2% (inactive)

Qu. Form field - read-out: growth; system: OVCAR-4 ovarian; submitted item: COc1ccc(-c2cc(/C=C/C(=O)c3ccc(OC)c(OC)c3)[nH]n2)cc1
Ans. 32.7% (inactive)

Qu. Form field - read-out: growth; system: OVCAR-4 ovarian; submitted item: Cn1c(=O)c2c(nc(Br)n2CC(=O)Nc2ccc(F)cc2)n(C)c1=O
Ans. 120% (inactive)

Qu. Form field - read-out: growth; system: OVCAR-4 ovarian; submitted item: CC1(C)C=CC[C@]2(C)[C@H]3CC[C@@H]4[C@H]5[C@H](C(=O)/C=C/c6cccnc6)CC[C@]5(CO)CC[C@@]4(C)[C@]3(C)CC[C@@H]12
Ans. -14.5% (active)

Qu. Form field - read-out: growth; system: OVCAR-4 ovarian; submitted item: N=C(N)c1ccc(-c2ccc(-c3cc(F)cc(F)c3)o2)nc1
Ans. 96.2% (inactive)

Qu. Form field - read-out: growth; system: OVCAR-4 ovarian; submitted item: Cc1cc(C)c(NC(=O)c2sc3nc4c(cc3c2N)CCCC4)c(C)c1
Ans. 60.9% (inactive)

Qu. Form field - read-out: growth; system: OVCAR-4 ovarian; submitted item: O=S(=O)(NCCCNc1cc(-c2cn(-c3ccccc3)nc2-c2cccc(O)c2)ccn1)c1ccc(F)cc1
Ans. 35.7% (inactive)

Qu. Form field - read-out: growth; system: OVCAR-4 ovarian; submitted item: NC1=NN(c2ccccc2)C(=O)/C1=C/c1ccc(Cl)cc1
Ans. 109% (inactive)

Qu. Form field - read-out: growth; system: OVCAR-4 ovarian; submitted item: O=c1c(CNc2ccc(S(=O)(=O)Nc3nccs3)cc2)coc2ccccc12
Ans. 99.9% (inactive)

Qu. Form field - read-out: growth; system: OVCAR-4 ovarian; submitted item: Cc1csc(Nc2nc(-c3ccc(Cl)cc3)nc(C(Cl)(Cl)Cl)n2)n1
Ans. 95.5% (inactive)

Qu. Form field - read-out: growth; system: OVCAR-4 ovarian; submitted item: O=C1CN(c2ccccc2)C(=O)C1C(=O)Nc1ccc(Cl)c(Cl)c1 (configuration not stated)
Ans. 0.243% [100 µM] (active)

Qu. Form field - read-out: growth; system: OVCAR-4 ovarian; submitted item: CN(C)c1cccc2[nH]c(-c3[nH]ncc3Nc3ccnc(N)n3)nc12
Ans. -11.7% (active)

Qu. Form field - read-out: growth; system: OVCAR-4 ovarian; submitted item: Nc1c(C(=O)Nc2cccc(Br)c2)sc2nc3c(cc12)C(=O)CCC3
Ans. 77.2% (inactive)

// provenance: PubChem BioAssay (NCI)
